Tested on: SK-MEL-28 melanoma
PROCEDURE_DETAILS: NCI-60 one-dose screen, 48 h (100 = growth as untreated, 0 = no growth, -100 = all killed)
CONDITION_LABEL: 10 µM unless noted
The panel holds about 83,000 compounds, 20% with a hit somewhere; the sample as a whole holds those more often.
Please go through the items and note down their growth.
Answers are plain numbers, in %.

MOLECULE	MEASURED
CCOC(=O)C1=C(C)N=C2Sc3ccccc3N2C1c1ccccc1 (configuration not stated)	109

Below are some molecules; for each one, tell me its growth.
1. C=C(C)[C@@H]1CC[C@]2(C(=O)NCCCN(CCC#N)CCC#N)CC[C@]3(C)[C@H](CC[C@@H]4[C@@]5(C)CCC(=O)C(C)(C)[C@@H]5CC[C@]43C)[C@@H]12
2. CN1CCN(Cc2ccc(NC(=O)c3cncc(C#Cc4cnc5ccc(O[C@H]6CCOC6)nn45)c3)cc2C(F)(F)F)CC1
3. COc1cc2c3c(n(CCCN4CCCCC4)c(=O)c2cc1OC)-c1cc2c(cc1C3=O)OCO2
4. CCOC(=O)c1c(NC(=O)c2ccc(C(C)(C)C)cc2)sc2cc(OCCN3CCCCC3)ccc12
5. COCCC[C@H]1O[C@@](O)([C@H](C)[C@@H]2CC(OC)C(O)/C=C(C)/C=C(C)/C=C(\C)C(OC3O[C@@H](C)[C@H](O)C(O)[C@@H]3O)C(C)/C=C(C)/C=C(OC)/C=C(\C)C(=O)O2)C(OC)C(O)[C@]1(C)O[C@H]1C[C@@H](O)[C@H](O[C@H]2C[C@](C)(O)[C@H](O)C(C)O2)C(C)O1 (some centres not stated)

Completion:
[104, -80.3, -79.4, 104, 84.2]

Prompt: Quick one: growth for O=S(=O)(NC1CC2CCC1C2)c1ccc2c(c1)C(=NO)c1cc(S(=O)(=O)NC3CC4CCC3C4)ccc1-2 (configuration not stated) ?
Completion: 92.3
